- measured-on: T1, human soluble urokinase plasminogen activator receptor (suPAR) (human, UniProt Q03405 23-303, limits assumed)
- T1 construct: Column head says only 'human'; also called hsuPAR; human suPAR
- assay-method-text: BLI (Octet) off-rate screen of scFv clones
Reported koff is given for each of the following binders.
Remember to follow the number with its unit.

Illustrative cases are given below, each with its answer.
binder	koff
suPAR_DB05_C03 (scFv, V domains shown, Screened as scFv) VH: QVQLVQSGAEVKKPGASVKVSCKASGYTFTNYYMHWVRQAPGQGLEWMGWIDHEGGNTSYAQKFQGRVTMTRDTSTSTVYMELSSLRSEDTAVYYCARGYDVDWFVYWGQGTLVTVSS VL: DIQMTQSPSSLSASVGDRVTITCRARSSVSYMYWYQQKPGKAPKLLIYRTSNLASGVPSRFSGSGSGTDFTLTISSLQPEDFATYYCQQYHSYPPTFGGGTKVEIK	0.00367 s⁻¹
suPAR_DB04_H06 (scFv, V domains shown, Screened as scFv) VH: QVQLVQSGAEVKKPGASVKVSCKASGYTFTNYYVHWVRQAPGQGLEWMGWIDHENGNTSYAQKFQGRVTMTRDTSTSTVYMELSSLRSEDTAVYYCARGYDVDWFVYWGQGTLVTVSS VL: DIQMTQSPSSLSASVGDRVTITCSARSSVSYMYWYQQKPGKAPKLLIYRTSNLQSGVPSRFSGSGSGTDFTLTISSLQPEDFATYYCQQYHSYPPTFGGGTKVEIK	0.00926 s⁻¹
suPAR_DB05_C08 (scFv, V domains shown, Screened as scFv) VH: QVQLVQSGAEVKKPGASVKVSCKASGYTFTSYYMHWVRQAPGQGLEWMGWIDPENGNTIYDQKFQGRVTMTRDTSTSTVYMELSSLRSEDTAVYYCARGYDVDWFVYWGQGTLVTVSS VL: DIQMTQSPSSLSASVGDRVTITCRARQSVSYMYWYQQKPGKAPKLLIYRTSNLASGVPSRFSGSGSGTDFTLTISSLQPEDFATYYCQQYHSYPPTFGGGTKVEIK	0.00284 s⁻¹
suPAR_DB05_B05 (scFv, V domains shown, Screened as scFv) VH: QVQLVQSGAEVKKPGASVKVSCKASGNTFSGYYVHWVRQAPGQGLEWMGWIDPSNGNTIYDQKFQGRVTMTRDTSTSTVYMELSSLRSEDTAVYYCARGYDVDWFVYWGQGTLVTVSS VL: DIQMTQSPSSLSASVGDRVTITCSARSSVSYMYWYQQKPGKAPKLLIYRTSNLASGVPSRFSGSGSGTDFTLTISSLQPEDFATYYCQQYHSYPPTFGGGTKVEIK	0.00417 s⁻¹
suPAR_DB04_H09 (scFv, V domains shown, Screened as scFv) VH: QVQLVQSGAEVKKPGASVKVSCKASGGTFSGYYMHWVRQAPGQGLEWVGWITPDSGATAYAQKFQGRVTMTRDTSTSTVYMELSSLRSEDTAVYYCARGYDVDWFVYWGQGTLVTVSS VL: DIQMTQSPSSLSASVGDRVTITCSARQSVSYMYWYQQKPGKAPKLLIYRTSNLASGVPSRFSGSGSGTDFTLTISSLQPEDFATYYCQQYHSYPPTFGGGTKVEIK	0.00475 s⁻¹
suPAR_DB05_C07 (scFv, V domains shown, Screened as scFv) VH: QVQLVQSGAEVKKPGASVKVSCKASGYTFTSHYVHWVRQAPGQGLEWMGWIDHEGGSTSYDQKFQGRVTMTRDTSTSTVYMELSSLRSEDTAVYYCARGYDVDWFVYWGQGTLVTVSS VL: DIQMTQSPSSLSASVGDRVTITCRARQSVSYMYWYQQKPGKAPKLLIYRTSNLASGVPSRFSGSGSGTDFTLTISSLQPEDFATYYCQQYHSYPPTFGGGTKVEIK	0.00431 s⁻¹

What does the data say about its koff? Entry: suPAR_DB05_B01 (scFv, V domains shown, Screened as scFv) VH: QVQLVQSGAEVKKPGASVKVSCKASGYPFTSYYMHWVRQAPGQGLEWMGWIDHENGNTIYDQKFQGRVTMTRDTSTSTVYMELSSLRSEDTAVYYCARGYDVDWFVYWGQGTLVTVSS VL: DIQMTQSPSSLSASVGDRVTITCSASSSVSYMYWYQQKPGKAPKLLIYRTSNLASGVPSRFSGSGSGTDFTLTISSLQPEDFATYYCQQYHSYPPTFGGGTKVEIK 0.00356 s⁻¹

# credit: patent US20250215104A1
